Overview of recorded switch fluorescence ratio for various sequences
tested on: ATP; assay: switch fluorescence ratio, 500 uM ATP over buffer (Cy3 cluster intensity, sum of 5 cycles each) (fold (ratio)); higher = stronger signal-on switching upon ATP binding; sequences stand for … in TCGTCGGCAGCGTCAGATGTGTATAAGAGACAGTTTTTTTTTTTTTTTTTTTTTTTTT…TC; conditions: aptamer strand: ATP DNA aptamer (quencher-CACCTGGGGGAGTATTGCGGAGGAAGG + anchor), 100 nM annealed; ATP concentration: 500 uM;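 also: ATP exposure 15 min at 22 °C before imaging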
Would you mind answering with just the numeric figure?

# annotated cases, reported switch fluorescence ratio shown
TGATGGGAGT = 0.983
AAGGAGGGTA = 1.01
TTAGGAATGG = 1
CATGGAATCG = 1.02
TGAGGTAACG = 0.992

input: Look at this sequence and give its reported switch fluorescence ratio. GGGTTTTTCT
output: 0.99

input: // next record TGCATACAGT
output: 1.03

input: // next record TCTAGGATGG
output: 0.962

input: // next record GCTTTACACC
output: 1.19

input: // next record AAGCGCGACG
output: 0.991

input: // next record CGGGCTGGAG
output: 1.09

input: // next record CGAGATACTC
output: 1.86

input: // next record GAGTTATTCG
output: 1.02

----------
system: ATP; test: switch fluorescence ratio, 500 uM ATP over buffer (Cy3 cluster intensity, sum of 5 cycles each) (fold (ratio)); higher = stronger signal-on switching upon ATP binding; sequences stand for … in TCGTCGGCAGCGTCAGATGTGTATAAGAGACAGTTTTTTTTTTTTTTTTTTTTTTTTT…TC; conditions: aptamer strand: ATP DNA aptamer (quencher-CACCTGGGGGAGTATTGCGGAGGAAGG + anchor), 100 nM annealed; ATP concentration: 500 uM;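 also: ATP exposure 15 min at 22 °C before imaging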
Please mark YES if the recorded switch fluorescence ratio is equal to or greater than 1, and NO if it falls below.

Below, 5 sequences whose answers are already recorded.
TGACGAGCTG = YES
AGTGTTTCAG = NO
TAAACATCAC = YES
CGTAGGGGTA = YES
CGCCTCGTAC = YES

Switching to the query record.
input: Please check the record ATCGCGGTGC and state if its switch fluorescence ratio is at or above 1.
output: YES

----------
test system: ATP; assay: switch fluorescence ratio, 500 uM ATP over buffer (Cy3 cluster intensity, sum of 5 cycles each) (fold (ratio)); higher = stronger signal-on switching upon ATP binding; sequences stand for … in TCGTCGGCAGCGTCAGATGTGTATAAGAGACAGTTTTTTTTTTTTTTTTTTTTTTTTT…TC; settings: aptamer strand: ATP DNA aptamer (quencher-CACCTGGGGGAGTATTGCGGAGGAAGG + anchor), 100 nM annealed; ATP concentration: 500 uM;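 also: ATP exposure 15 min at 22 °C before imaging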
Overview of recorded switch fluorescence ratio for various sequences
Would you mind answering with just the numeric figure?

AGGGCAAGGA = 1.11
GTTATCGCTA = 1.07
AATTGTCGCG = 1.01
ATAACCAGTT = 0.988
ATTGGGTCGT = 0.992

input: Look at this sequence and give its reported switch fluorescence ratio. TCAGGGGGAC
output: 1.78

----------
Overview of recorded switch fluorescence ratio for various sequences
system: ATP; test: switch fluorescence ratio, 500 uM ATP over buffer (Cy3 cluster intensity, sum of 5 cycles each) (fold (ratio)); higher = stronger signal-on switching upon ATP binding; sequences stand for … in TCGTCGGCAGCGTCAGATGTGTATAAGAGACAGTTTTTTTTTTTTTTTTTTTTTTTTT…TC; conditions: aptamer strand: ATP DNA aptamer (quencher-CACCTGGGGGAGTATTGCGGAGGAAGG + anchor), 100 nM annealed; ATP concentration: 500 uM;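 also: ATP exposure 15 min at 22 °C before imaging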
Would you mind answering with just the numeric figure?

TAAGGGGATA = 1.06
CATATCCCCT = 1.03
AGTTGGTGG = 1.02
CGGCTTTTTG = 0.991
TTTAGATGCT = 1.03

input: Look at this sequence and give its reported switch fluorescence ratio. GTAATTTGGT
output: 0.99

input: // next record AGCAACAGTT
output: 1.19

input: // next record TTAGCTTGCT
output: 1.02

input: // next record CCGTTAGCGG
output: 1.11

input: // next record TCGTTGGTCC
output: 1.03

input: // next record CAGGGTGGTA
output: 0.993

input: // next record GCTTGCCAAA
output: 0.998
